Source of measurements: patent US9340579B2

For each of the binders below, state its IC50 value.
- testedTarget: DPP-4 (manufactured by Sigma, derived from porcine kidney) (porcine, UniProt P22411 38-766, limits assumed)
- Sequence (P22411 38-766 limits assumed): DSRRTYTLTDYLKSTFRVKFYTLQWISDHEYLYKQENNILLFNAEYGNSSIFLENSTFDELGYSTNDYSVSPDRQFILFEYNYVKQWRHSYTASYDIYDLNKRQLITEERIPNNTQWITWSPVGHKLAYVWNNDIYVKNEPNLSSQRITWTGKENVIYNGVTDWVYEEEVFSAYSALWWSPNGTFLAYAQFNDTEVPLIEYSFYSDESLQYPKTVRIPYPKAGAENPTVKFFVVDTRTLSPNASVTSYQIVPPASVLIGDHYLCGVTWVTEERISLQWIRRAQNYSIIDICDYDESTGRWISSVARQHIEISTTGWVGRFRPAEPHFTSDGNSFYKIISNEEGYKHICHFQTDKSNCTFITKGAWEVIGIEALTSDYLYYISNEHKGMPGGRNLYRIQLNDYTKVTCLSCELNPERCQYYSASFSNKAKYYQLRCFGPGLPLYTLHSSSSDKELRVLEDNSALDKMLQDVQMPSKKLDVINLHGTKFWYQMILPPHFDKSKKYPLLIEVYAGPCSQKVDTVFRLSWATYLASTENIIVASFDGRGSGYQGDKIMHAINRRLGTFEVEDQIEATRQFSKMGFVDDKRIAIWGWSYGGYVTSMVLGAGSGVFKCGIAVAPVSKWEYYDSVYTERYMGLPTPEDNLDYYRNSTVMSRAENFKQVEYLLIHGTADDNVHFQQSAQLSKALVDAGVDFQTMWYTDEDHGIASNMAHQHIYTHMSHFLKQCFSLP
- experimentalDetails: cell-based or functional assay
Give bare numbers, in µM.

Would you please look over these solved cases?
- binder: "GAVGP [Gly-Ala-Val-Gly-Pro]"
  IC50 value, µM: 1200
- binder: "GPAGPI [Gly-Pro-Ala-Gly-Pro-Ile]"
  IC50 value, µM: 50
- binder: "GAIGPA [Gly-Ala-Ile-Gly-Pro-Ala]"
  IC50 value, µM: 285

Hey, can you go through the list below and give me IC50 value for every item?
1. GPAG [Gly-Pro-Ala-Gly]
2. GPV [Gly-Pro-Val]

A.
1. 150
2. 370
